Attribute: binding over background (PBS-only wells)
study_system: T1, PrgI-SipD
T1 construct: also called PrgI-SipD fusion
T1 chain: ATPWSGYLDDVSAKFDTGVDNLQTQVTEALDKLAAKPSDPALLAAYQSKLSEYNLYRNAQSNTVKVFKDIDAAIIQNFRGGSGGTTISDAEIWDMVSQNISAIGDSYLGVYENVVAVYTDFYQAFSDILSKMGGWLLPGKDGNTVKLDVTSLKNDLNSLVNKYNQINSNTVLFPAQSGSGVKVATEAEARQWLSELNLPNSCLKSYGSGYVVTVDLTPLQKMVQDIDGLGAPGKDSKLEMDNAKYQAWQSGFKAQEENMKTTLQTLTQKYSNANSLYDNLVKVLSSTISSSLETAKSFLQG
assay_details: phage ELISA, antigen-coated wells, anti-M13-HRP, A405
quantity_measured: binding over background (PBS-only wells)

[[record]]
binder = "NBX0234 (VHH, also called Clone 131) VHH: QVQLQESGGGLVQAGGSLRLSCAASGRTFSTYAMGWFRQAPGKEREFVATISRSGDNIYYADSVKGRFTISRDNAKNTVSLQMNSLKVEDTAVYYCGRARGTGYAHTALNQYDYDYWGQGTQVTVSS"
quantity_measured = "binding over background (PBS-only wells)"
recorded_result = "≥ 4 fold"

[[record]]
binder = "NBX0235 (VHH, also called Clone 132) VHH: QVQLQESGGGLVQAGGSLSLSCRVSGSAFSGDAMGWYRRAPGKQREFVAGISSGGIENYMDSVKGRFTISRDNAKNTVYLRMSSLKPEDTAVYYCNLIKAVLRGNSGWGQGTQVTVSS"
quantity_measured = "binding over background (PBS-only wells)"
recorded_result = "≥ 4 fold"

